The measurements presented in this section are drawn from patent US9630977B2.

System: K. pneumoniae 2011E
assay-overview: In vitro antibacterial activity test (broth microdilution)
Type: cell-based
details: Klebsiella pneumoniae, 2011E, K. pneumoniae 2011E; read-out: MIC90
parameter-measured: MIC90 (µg/mL)
Expressed in µg/mL, but write only the number.

For the compound CC(C)(O/N=C(\C(=O)N[C@@H]1C(=O)N2C(C(=O)[O-])=C(C[n+]3cnc(N)c(NCCCC(=O)O)c3)CSC12)c1csc(N)n1)C(=O)O (stereo partly drawn) , report MIC90.
4

For the compound CC(C)(O/N=C(\C(=O)N[C@@H]1C(=O)N2C(C(=O)[O-])=C(C[n+]3cnc(N)c(NCCNC(=O)c4cc(=O)c(O)cn4O)c3)CSC12)c1nsc(N)n1)C(=O)O (stereo partly drawn) , report MIC90.
8

For the compound C[C@H](O/N=C(\C(=O)N[C@@H]1C(=O)N2C(C(=O)[O-])=C(/C=C/C[n+]3cnc(N)c(NCCNC(=O)c4cc(=O)c(O)cn4O)c3)CSC12)c1nc(N)sc1Cl)C(=O)O (stereo partly drawn) , report MIC90.
0.5

For the compound C[C@H](O/N=C(\C(=O)N[C@@H]1C(=O)N2C(C(=O)[O-])=C(C[n+]3cnc(N)c(NCCNC(=O)c4ccc(O)c(O)c4)c3)CSC12)c1csc(N)n1)C(=O)O (stereo partly drawn) , report MIC90.
0.25

For the compound CC(C)(O/N=C(\C(=O)N[C@@H]1C(=O)N2C(C(=O)[O-])=C(C[n+]3cnc(N)c(NCCNC(=O)c4ccc(O)c(O)c4)c3)CSC12)c1csc(N)n1)C(=O)O (stereo partly drawn) , report MIC90.
0.5

For the compound CN(CCNc1c[n+](CC2=C(C(=O)[O-])N3C(=O)[C@@H](NC(=O)/C(=N\OC(C)(C)C(=O)O)c4csc(N)n4)C3SC2)cnc1N)Cc1ccc(O)c(O)c1 (stereo partly drawn) , report MIC90.
8

====

Tested on: P. aeruginosa 43
assay-overview: In vitro antibacterial activity test (broth microdilution)
Format: cell-based
details: Pseudomonas aeruginosa; P. aeruginosa 43; read-out: MIC90
parameter-measured: MIC90 (µg/mL)
Expressed in µg/mL, but write only the number.

Report its MIC90 with P. aeruginosa 43 as the test system: C[C@H](O/N=C(\C(=O)N[C@@H]1C(=O)N2C(C(=O)[O-])=C(C[n+]3cnc(N)c(NCCNC(=O)c4cc(=O)c(O)cn4O)c3)CSC12)c1nc(N)sc1Cl)C(=O)O (stereo partly drawn)
1

Report its MIC90 with P. aeruginosa 43 as the test system: CC(C)(O/N=C(\C(=O)N[C@@H]1C(=O)N2C(C(=O)[O-])=C(/C=C/C[n+]3cnc(N)c(NC(=O)c4cc(=O)c(O)cn4O)c3)CSC12)c1csc(N)n1)C(=O)O (stereo partly drawn)
0.25

Report its MIC90 with P. aeruginosa 43 as the test system: C[C@H](O/N=C(\C(=O)N[C@@H]1C(=O)N2C(C(=O)[O-])=C(/C=C/C[n+]3cnc(N)c(NCCNC(=O)c4cc(=O)c(O)cn4O)c3)CSC12)c1csc(N)n1)C(=O)O (stereo partly drawn)
0.25

====

System: P. aeruginosa 6065Y
assay-overview: In vitro antibacterial activity test (broth microdilution)
Format: cell-based
details: Pseudomonas aeruginosa, read-out: MIC90
Method: To evaluate antibacterial activity of each of the compounds of Examples 1 to 68, in vitro antibacterial activity test was performed. […] In vitro antibacterial activity was measured with respect to the following 19 clinical isolates: M. catarrhalis; P. aeruginosa (5 strains); K. pneumoniae (6 strains); A. baumannii (3 strains); E. coli (2 strains); A. calcoaceticus; and E. cloacae. […]
Assign MIC90 to each entry below.
Expressed in µg/mL, but write only the number.

Report its MIC90 with P. aeruginosa 6065Y as the test system: CC(C)(O/N=C(\C(=O)N[C@@H]1C(=O)N2C(C(=O)[O-])=C(C[n+]3cnc(N)c(NC(=O)c4cc(=O)c(O)cn4O)c3)CSC12)c1nc(N)sc1Cl)C(=O)O (some centres unmarked) [Compound 22]
2

Report its MIC90 with P. aeruginosa 6065Y as the test system: CC(C)(O/N=C(\C(=O)N[C@@H]1C(=O)N2C(C(=O)[O-])=C(C[n+]3cnc(NCCNC(=O)c4cc(=O)c(O)cn4O)c(N)c3)CSC12)c1csc(N)n1)C(=O)O (some centres unmarked) [Compound 6]
2

Report its MIC90 with P. aeruginosa 6065Y as the test system: CC(C)(O/N=C(\C(=O)N[C@@H]1C(=O)N2C(C(=O)[O-])=C(C[n+]3cnc(N)c(NC(=O)CCNC(=O)c4cc(=O)c(O)cn4O)c3)CSC12)c1nc(N)sc1Cl)C(=O)O (some centres unmarked) [Compound 18]
2

Report its MIC90 with P. aeruginosa 6065Y as the test system: CC(C)(O/N=C(\C(=O)N[C@@H]1C(=O)N2C(C(=O)[O-])=C(/C=C/C[n+]3cnc(N)c(NC(=O)CCNC(=O)c4cc(=O)c(O)cn4O)c3)CSC12)c1csc(N)n1)C(=O)O (some centres unmarked) [Compound 12]
2

Report its MIC90 with P. aeruginosa 6065Y as the test system: C[C@H](O/N=C(\C(=O)N[C@@H]1C(=O)N2C(C(=O)[O-])=C(C[n+]3cnc(N)c(NCCNC(=O)c4ccc(O)c(O)c4)c3)CSC12)c1nc(N)sc1Cl)C(=O)O (some centres unmarked) [Compound 35]
2

====

System: P. aeruginosa 37
assay-overview: In vitro antibacterial activity test (broth microdilution)
Assay type: cell-based
details: Pseudomonas aeruginosa, 37, P. aeruginosa 37
Assign MIC90 to each entry below.
Expressed in µg/mL, but write only the number.

For the molecule CC(C)(O/N=C(\C(=O)N[C@@H]1C(=O)N2C(C(=O)[O-])=C(C[n+]3cnc(NCCN)c(NCCNC(=O)c4cc(=O)c(O)cn4O)c3)CSC12)c1csc(N)n1)C(=O)O (stereo partly drawn) , report MIC90.
1

For the molecule CC(C)(O/N=C(\C(=O)N[C@@H]1C(=O)N2C(C(=O)[O-])=C(/C=C/C[n+]3cnc(N)c(NCCCN)c3)CSC12)c1nc(N)sc1Cl)C(=O)O (stereo partly drawn) , report MIC90.
8

For the molecule CC(C)(O/N=C(\C(=O)N[C@@H]1C(=O)N2C(C(=O)[O-])=C(/C=C/C[n+]3cnc(N)c(NCCCCN)c3)CSC12)c1nc(N)sc1Cl)C(=O)O (stereo partly drawn) , report MIC90.
32

For the molecule CC(C)(O/N=C(\C(=O)N[C@@H]1C(=O)N2C(C(=O)[O-])=C(/C=C/C[n+]3cnc(N)c(NC(=O)CCN)c3)CSC12)c1nc(N)sc1Cl)C(=O)O (stereo partly drawn) , report MIC90.
8

For the molecule C[C@H](O/N=C(\C(=O)N[C@@H]1C(=O)N2C(C(=O)[O-])=C(C[n+]3cnc(NCCN)c(NCCNC(=O)c4cc(=O)c(O)cn4O)c3)CSC12)c1nc(N)sc1Cl)C(=O)O (stereo partly drawn) , report MIC90.
32

For the molecule CC(C)(O/N=C(\C(=O)N[C@@H]1C(=O)N2C(C(=O)[O-])=C(C[n+]3cnc(NCCCCN)c(NCCCCN)c3)CSC12)c1csc(N)n1)C(=O)O (stereo partly drawn) , report MIC90.
8
